Values from patent EP4650002A1

Target: human TLX (Homo sapiens)
Construct: expressed in transfected cells; host or cells: HEK293T
Assay: Gal4 hybrid reporter gene assay (TLX modulation)
Format: cell-based
Set-up: key: fraction of DMSO control (DMSO = 1)
Details: minimal remaining or maximum reporter activity after treatment, in brackets below the EC50; DMSO control = 1; <1 agonism, >1 inverse agonism
Assay endpoint: relative reporter activity

| Test smiles | Assay endpoint | Reported |
| --- | --- | --- |
| Cc1cc(-c2cc(NC(=O)c3cc(C)[nH]n3)cc(C(F)(F)F)c2)ccn1 | relative reporter activity | 0.32±0.03 |
| CCOc1cc(C(=O)Nc2cc(-n3cnc(C)c3)cc(C(F)(F)F)c2)c2ccccc2n1 | relative reporter activity | 0.57±0.04 |
| Cc1cc(-c2cc(NC(=O)c3ccc4ccccc4c3)cc(C(F)(F)F)c2)ccn1 | relative reporter activity | 0.29±0.06 |
| Cc1cc(-c2cc(NC(=O)c3ccnc4ccccc34)cc(C(F)(F)F)c2)ccn1 | relative reporter activity | 0.26±0.05 |
| Cc1cc(-c2cc(NC(=O)c3cc4ccccc4s3)cc(C(F)(F)F)c2)ccn1 | relative reporter activity | 0.39±0.05 |
| COc1ccc(C(=O)Nc2cc(-n3cnc(C)c3)cc(C(F)(F)F)c2)cc1 | relative reporter activity | 0.42±0.03 |
| Nc1cc(-c2cscn2)cc(C(F)(F)F)c1 | relative reporter activity | 0.58±0.10 |
| CC(=O)c1ccc(-c2ccnc(C)c2)cc1N | relative reporter activity | 0.58±0.09 |
| Cc1cc(-c2cc(NC(=O)c3ccc(Cl)c(Cl)c3)cc(C(F)(F)F)c2)ccn1 | relative reporter activity | 0.51±0.5 |
| CC(=O)Nc1cc(-c2ccnc(C)c2)cc(C(F)(F)F)c1 | relative reporter activity | 0.18±0.06 |
| Cc1cn(-c2cc(NC(=O)Cc3cccnc3)cc(C(F)(F)F)c2)cn1 | relative reporter activity | 0.21±0.07 |
| CC(=O)c1cc(-c2cc(NC(=O)c3ccnc4ccccc34)cc(C(F)(F)F)c2)cs1 | relative reporter activity | 0.17±0.08 |
| Cn1cc(-c2cc(N)cc(C(F)(F)F)c2)cn1 | relative reporter activity | 0.43±0.11 |
| Cc1nn(C)c(C)c1-c1cc(N)cc(C(F)(F)F)c1 | relative reporter activity | 0.34±0.09 |
| Nc1cc(-c2ccncc2)cc(C(F)(F)F)c1 | relative reporter activity | 0.18±0.13 |
| Nc1cc(-c2cnoc2)cc(C(F)(F)F)c1 | relative reporter activity | 0.47±0.06 |
| Nc1cc(-c2cncnc2)cc(C(F)(F)F)c1 | relative reporter activity | 0.40±0.06 |
| Cc1cn(-c2cc(NC(=O)c3ccccc3)cc(C(F)(F)F)c2)cn1 | relative reporter activity | 0.38±0.08 |
| Cn1ccc2cc(-c3cc(N)cc(C(F)(F)F)c3)cnc21 | relative reporter activity | 0.29±0.03 |
| Nc1cc(-n2cccc2)cc(C(F)(F)F)c1 | relative reporter activity | 0.23±0.15 |
| CC(=O)c1cc(-c2cc(N)cc(C(F)(F)F)c2)ccn1 | relative reporter activity | 0.30±0.05 |
| Cc1cn(-c2cc(NC(=O)c3ccc(Cl)cc3)cc(C(F)(F)F)c2)cn1 | relative reporter activity | 0.41±0.05 |
| Cc1cc(-c2cc(N)cc(C#N)c2)ccn1 | relative reporter activity | 0.40±0.11 |
| Cc1cc(-c2cc(N)ccc2OC(F)(F)F)ccn1 | relative reporter activity | 0.34±0.09 |
| Cc1cn(-c2cc(NC(=O)c3ccc(Cl)c4ccccc34)cc(C(F)(F)F)c2)cn1 | relative reporter activity | 0.34±0.11 |
| Cc1ccc(C(=O)Nc2cc(-n3cnc(C)c3)cc(C(F)(F)F)c2)cc1 | relative reporter activity | 0.59±0.06 |
| Cc1ncc(-c2cc(N)cc(C(F)(F)F)c2)cn1 | relative reporter activity | 0.34±0.09 |
| Cc1c(-c2cc(N)cc(C(F)(F)F)c2)cnn1C | relative reporter activity | 0.49±0.11 |
| CC(=O)c1cc(-c2cc(NC(=O)Cc3ccccc3Cl)cc(C(F)(F)F)c2)cs1 | relative reporter activity | 0.27±0.03 |
| Cc1cc(-c2cc(N)c3cn[nH]c3c2)ccn1 | relative reporter activity | 0.31±0.03 |
| Cc1cn(-c2cccc(NC(=O)Cc3ccccc3Cl)c2)cn1 | relative reporter activity | 0.18±0.10 |
| Cc1cn(-c2cc(NC(=O)c3ccc(Cl)c(Cl)c3)cc(C(F)(F)F)c2)cn1 | relative reporter activity | 0.33±0.12 |
| Cc1cc(C(=O)Nc2cc(N)cc(C(F)(F)F)c2)nn1C | relative reporter activity | 0.20±0.02 |
| Cc1cc(-c2cc(NC(=O)C3CCC3)cc(C(F)(F)F)c2)ccn1 | relative reporter activity | 0.17±0.09 |
| CC(=O)c1cc(-c2cc(N)cc(C(F)(F)F)c2)cs1 | relative reporter activity | 0.24±0.07 |
| Cc1cc(-c2cc(NC(=O)Cc3ccccc3)cc(C(F)(F)F)c2)ccn1 | relative reporter activity | 0.12±0.06 |
| CC(=O)c1nc(-c2cc(N)cc(C(F)(F)F)c2)cs1 | relative reporter activity | 0.26±0.05 |
| Cc1cn(-c2cc(NC(=O)c3ccc(C(F)(F)F)cc3)cc(C(F)(F)F)c2)cn1 | relative reporter activity | 0.59±0.10 |

----------
Biological target: human TLX (Homo sapiens, UniProt Q9Y466)
Construct: expressed in transfected cells; host or cells: HEK293T
Sequence (Q9Y466 155-383 limits assumed): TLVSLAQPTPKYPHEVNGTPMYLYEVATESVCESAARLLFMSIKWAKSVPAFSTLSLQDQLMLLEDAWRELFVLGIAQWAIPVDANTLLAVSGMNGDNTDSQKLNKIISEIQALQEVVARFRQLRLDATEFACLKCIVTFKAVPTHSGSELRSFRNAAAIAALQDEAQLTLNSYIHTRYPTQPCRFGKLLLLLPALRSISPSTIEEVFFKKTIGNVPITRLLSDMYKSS
Assay: Gal4 hybrid reporter gene assay (TLX modulation)
Format: cell-based
Settings: at 30 µM; DMSO control = 1
Assay endpoint: relative reporter activity

| Test smiles | Target under test | Reported |
| --- | --- | --- |
| Cc1ccc(-c2cc(N)cc(C(F)(F)F)c2)cc1 | human TLX (Homo sapiens, UniProt Q9Y466) | inactive at 30 µM |
| Cc1cccc(-c2cc(N)cc(C(F)(F)F)c2)c1 | human TLX (Homo sapiens, UniProt Q9Y466) | inactive at 30 µM |
| Cc1cc(-c2cc(N)cc(C(F)(F)F)c2)cs1 | human TLX (Homo sapiens, UniProt Q9Y466) | 2.8±0.5 |
| Cc1cn(-c2cccc(N)c2)cn1 | human TLX (Homo sapiens, UniProt Q9Y466) | inactive at 30 µM |
| Cc1ccc(-c2cc(N)cc(C(F)(F)F)c2)s1 | human TLX (Homo sapiens, UniProt Q9Y466) | 2.2±0.6 |
| Cn1cc(-c2cccc(N)c2)cn1 | human TLX (Homo sapiens, UniProt Q9Y466) | inactive at 30 µM |

----------
Target: human TLX (Homo sapiens, UniProt Q9Y466)
Experiment: Gal4 hybrid reporter gene assay (TLX modulation)
Details: Gal4-TLX hybrid reporter in HEK293T cells, 16 h incubation
Each record here notes measured EC50.
Assay endpoint: EC50 (µM)

| Test smiles | Assay endpoint | Reported |
| --- | --- | --- |
| Cc1nn(C)c(C)c1-c1cc(N)cc(C(F)(F)F)c1 | EC50 | 4.2 |
| CC(=O)c1cncc(-c2cc(N)cc(C(F)(F)F)c2)c1 | EC50 | 4.6 |
| Cc1cc(-c2cc(NC(=O)c3ccc(Cl)c(Cl)c3)cc(C(F)(F)F)c2)ccn1 | EC50 | 0.6 |
| Cc1cc(-c2cc(N)cc(C(F)(F)F)c2)cnc1C | EC50 | 6.3 |
| Cn1ccc2c(-c3cc(N)cc(C(F)(F)F)c3)cccc21 | EC50 | 18 |
| Cc1cc(-c2cc(N)ccc2OC(F)(F)F)ccn1 | EC50 | 16 |
| Cc1cc(-c2cc(NC(=O)c3ccnc4ccccc34)cc(C(F)(F)F)c2)ccn1 | EC50 | 0.41 |
| COc1cc(N)cc(-c2ccnc(C)c2)c1 | EC50 | 15 |
| CC(=O)c1cc(-c2cc(N)cc(C(F)(F)F)c2)ccn1 | EC50 | 4.6 |

----------
Target: human TLX (Homo sapiens)
Construct: expressed in transfected cells; host or cells: HEK293T
Assay: Gal4 hybrid reporter gene assay (TLX modulation)
Assay type: cell-based
Parameters: key: fraction of DMSO control (DMSO = 1)
Details: at 10 µM; DMSO control = 1
Assay endpoint: relative reporter activity

| Molecule | Assay endpoint | Reported |
| --- | --- | --- |
| Cn1ccc2c(-c3cc(N)cc(C(F)(F)F)c3)cccc21 [compound 100] | relative reporter activity | 0.55±0.06 |

----------
Molecular target: human TLX (Homo sapiens, UniProt Q9Y466)
Test: Gal4 hybrid reporter gene assay (TLX modulation)
Conditions: Gal4-TLX hybrid reporter in HEK293T cells, 16 h incubation
pEC50: −log10 of the molar value.
Could you label it satisfied if measured pEC50 is 5 or higher, and not satisfied otherwise?

| Test smiles | Assigned label |
| --- | --- |
| Cn1ncc2cc(-c3cc(N)cc(C(F)(F)F)c3)ccc21 | satisfied |
| Cc1ncc(-c2cc(N)cc(C(F)(F)F)c2)cn1 | not satisfied |
| Nc1cc(-c2ccc3[nH]ccc3c2)cc(C(F)(F)F)c1 | satisfied |
| COC(=O)c1ccc(-c2cc(N)cc(C(F)(F)F)c2)s1 | satisfied |
| CC(=O)c1ccc(-c2ccnc(C)c2)cc1N | not satisfied |
| Cc1cc(-c2cc(NC(=O)c3cc4ccccc4s3)cc(C(F)(F)F)c2)ccn1 | satisfied |
| Nc1cc(-c2cccc3[nH]ccc23)cc(C(F)(F)F)c1 | satisfied |
| Cc1cc(-c2cc(NC(=O)Cc3ccccc3)cc(C(F)(F)F)c2)ccn1 | satisfied |
| Cc1c(-c2cc(N)cc(C(F)(F)F)c2)cnn1C | satisfied |
| Cn1ccc2cc(-c3cc(N)cc(C(F)(F)F)c3)ccc21 | satisfied |
